Measured values drawn from patent US20230414780A1 for this set.

In this section, each of the binders is paired with its reported pKd.
target: T1, mouse TfR ectodomain fused to a mouse IgG1 Fc fragment (mouse, UniProt Q62351 89-763); assay: SPR, kinetic
T1 construct: extracellular domain; not shown: mouse IgG1 Fc fragment
T1 sequence (Q62351 89-763): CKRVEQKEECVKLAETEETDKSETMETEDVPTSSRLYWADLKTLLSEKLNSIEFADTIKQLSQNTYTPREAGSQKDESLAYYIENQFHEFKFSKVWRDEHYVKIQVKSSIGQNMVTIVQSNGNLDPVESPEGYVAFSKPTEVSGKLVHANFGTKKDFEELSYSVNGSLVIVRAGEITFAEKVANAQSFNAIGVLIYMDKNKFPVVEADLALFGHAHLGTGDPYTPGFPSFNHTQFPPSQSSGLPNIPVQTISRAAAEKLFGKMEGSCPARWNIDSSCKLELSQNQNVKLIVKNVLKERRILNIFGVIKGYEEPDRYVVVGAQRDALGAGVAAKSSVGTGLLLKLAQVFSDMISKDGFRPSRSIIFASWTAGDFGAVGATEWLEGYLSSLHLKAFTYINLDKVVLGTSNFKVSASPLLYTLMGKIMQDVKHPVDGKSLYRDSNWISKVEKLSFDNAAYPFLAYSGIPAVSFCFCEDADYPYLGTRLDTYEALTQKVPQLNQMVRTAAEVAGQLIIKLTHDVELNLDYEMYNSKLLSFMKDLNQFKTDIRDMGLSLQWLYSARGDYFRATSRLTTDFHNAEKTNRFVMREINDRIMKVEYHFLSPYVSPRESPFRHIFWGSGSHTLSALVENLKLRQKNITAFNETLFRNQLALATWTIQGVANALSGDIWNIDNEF
Hey, just a heads up that pKd is the negative log base 10 of the concentration in molar.

INSERT INTO results (binder, observed_value) VALUES
  ('B8^V3 (VHH) VHH: EVQLVESGGGVVQPGGSLRLSCAASGEIFSINFMRWYREAPGKQREWVAGFTRDGSTNYPDSAKGRFTISRDNAKNTVYLQIDSLKPEDTAVYYCYMLDTWGQGTQVTVSS', 6.71),
  ('VHH A13 (C5^V13) (VHH) VHH: EVQLVESGGGVVQPGGSLKLSCVASGTDFSINFIRWYRQAPGKQREFVAGFSATGNTNYADSMKGRFTISRDNTKNAVYLQIDSLKPEDTAVYYCYMLDKWGQGTQVTVSS', 7.10),
  ('VHH A3 (C5^V3) (VHH) VHH: EVQLVESGGGVVQPGGSLKLSCVASGTDFSINFIRWYRQAPGKQREFVAGFTAAGNTNYADSMKGRFTISRDNTKNAVYLQIDSLKPEDTAVYYCYMLDKWGQGTQVTVSS', 7.08);

Query :: Identify measured pKd associated with VHH A1 (C5^V1) (VHH) VHH: EVQLVESGGGVVQPGGSLKLSCVASGADFSINFIRWYRQAPGKQREFVAGFTATGNTNYADSMKGRFTISRDNTKNAVYLQIDSLKPEDTAVYYCYMLDKWGQGTQVTVSS
Result :: 6.61
